System: NOMO1
Assay: cell viability relative to DMSO control; higher = less cytotoxic
Conditions: RPMI 5 mM glucose + 10% dialyzed FBS; 48 h; 1.71 µM

compound: O=C(NCC1CCOCC1)c1cnc(Nc2ccc(Cl)cc2Cl)nc1C(F)(F)F
cell viability [%]: 116
//
compound: Cc1cccc(-c2[nH]c(C(C)(C)C)nc2-c2ccc3c(c2)OCO3)n1
cell viability [%]: 97.2
//
compound: Clc1ccccc1C(c1ccccc1)(c1ccccc1)n1ccnc1
cell viability [%]: 104
//
compound: N#C/C(=C1/Nc2ccccc2S1)c1ccnc(OCc2ccc(CN3CCOCC3)cc2)n1
cell viability [%]: 99
//
compound: COC(=O)C/1=C(C)/N/C(=C(\C1C2=CC(=CC=C2)[N+]([O-])=O)C(=O)OCCCN3CCC(CC3)(C4=CC=CC=C4)C5=CC=CC=C5)C (configuration not stated)
cell viability [%]: 94.4
//
compound: Cc1cnc(Nc2ccc(N3CCN(C)CC3)cc2)nc1Nc1cccc([S+](=O)([O-])NC(C)(C)C)c1
cell viability [%]: 95.8
//
compound: CCC(C1CCC(C)C(O1)C(C)C(O)C(C)C(=O)C(CC)C2OC\3(O[C@]4(CC[C@@](C)(O4)C5CC[C@@](O)(CC)C(C)O5)C(O)\C=C3)C(C)CC2C)C([O-])=O (some centres not stated)
cell viability [%]: 36.2
//
compound: COc1ccc(C2(C#N)CCC(C(=O)O)CC2)cc1OC1CCCC1 (configuration not stated)
cell viability [%]: 101
//
compound: O=[S+]([O-])(NCCNC/C=C/c1ccc(Br)cc1)c1cccc2cnccc12
cell viability [%]: 85.3
//
compound: N=C(N)Nc1ccc(C(=O)Oc2ccc3cc(C(=N)N)ccc3c2)cc1
cell viability [%]: 83.7
//
compound: CCCCCN(CCC12CC3CC(CC(C3)C1)C2)C(=O)NCCCc1ccncc1
cell viability [%]: 111
//
compound: Oc1ccc2ccccc2c1SSc1c(O)ccc2ccccc12
cell viability [%]: 105
